assay: NCI Yeast Anticancer Drug Screen. Data for the sgs1 mgt1 strain (AID 161);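 further: 0% = growth of cultures given vehicle only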; conditions: S. cerevisiae sgs1 mgt1 strain, at 50.0 µM, active compounds read high
Compounds without any hit were thinned out: in the full panel of roughly 79,000, 15% have a hit.
REPORTED METRIC: growth inhibition (%)
Reply numerically in %, unit not repeated.

Below, each entry is followed by its recorded growth inhibition result.
NC1=NN(S(=O)(=O)c2ccc(Cl)cc2)CC1    -8.75
COc1ccccc1C(=O)N/N=C\c1c[nH]c2ccccc12    -4.85
O=c1[nH]n2c(=O)cc[nH]c2c1-c1nnns1    -36.1
CC(O)C1OC(n2cnc3c(=S)nc[nH]c32)C(O)C1O (stereo unspecified)    0.6
BrC1=C(c2ccccc2)C2CCCCC2C1(Br)c1ccccc1 (stereo unspecified)    97.8
Cc1cc2c(CC(=O)O)[nH]nc2c(C(=O)O)c1C    -13.2

Query block: Param item = CSc1ccc(NC(=O)Nc2cc(C)ccn2)cc1 ; retrieve measured growth inhibition.
Result block: -45.7

Query block: Param item = COC(=O)C(C(C[N+](=O)[O-])c1ccco1)=P(c1ccccc1)(c1ccccc1)c1ccccc1 (stereo unspecified) ; retrieve measured growth inhibition.
Result block: 45.6

Query block: Param item = O=C1OC2(C(F)(F)F)Oc3ccccc3CN2C12CCCCC2 (stereo unspecified) ; retrieve measured growth inhibition.
Result block: 11.4

Query block: Param item = CCOC(=O)N1CCC2C(=C(C)C(C)C3=C2C(=O)c2ccccc2C3=O)C1 (stereo unspecified) ; retrieve measured growth inhibition.
Result block: -8.9

Query block: Param item = Cc1cc(C)n(-c2nc(-n3nc(C)cc3C)nc(-n3nc(C)cc3C)n2)n1 ; retrieve measured growth inhibition.
Result block: -1.7

Source listed as PubChem BioAssay (NCI).
